The reported measurements were obtained from PubChem BioAssay (NCATS).

Protocol Text: qHTS of pediatric cancer cell lines to identify multiple opportunities for drug repurposing: Confirmatory screen for BT-37 cells (AID 1347117);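 further: viability measured after 48 h of compound exposure; nearly all actives have a fitted effect of over 55% in size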
Run Parameters: BT-37 pediatric cancer cells, viability
Records with an inconclusive call do not appear. The source made the active and inactive calls. The call rests on the fitted dose curve; in most records, active means well fitted cell-killing curve with a large enough effect; inconclusive means small, poorly fitted or top-dose-only effect; inactive means no such curve, though single readings can be large or run the other way.
Hi! Could you answer with just one of these? active, inactive

Entry "CN[C@H]1[C@@H](O)[C@@H]2O[C@@H]3O[C@H](C)CC(=O)[C@]3(O)O[C@@H]2[C@@H](NC)[C@H]1O" : call = ? inactive

Query: recorded result category for "CC(C)N1[N]C(=C2C=c3cc(O)ccc3=N2)c2c(N)ncnc21" in this test active

Field: outcome | Entry: "FC(F)c1nc2ccccc2n1-c1nc(N2CCOCC2)nc(N2CCOCC2)n1" active

Entry "CC(=O)[C@]1(O)Cc2c(O)c3c(c(O)c2[C@@H](O[C@H]2C[C@H](N)[C@@H](O)[C@H](C)O2)C1)C(=O)c1ccccc1C3=O" : call = ? active

I would be grateful if you could indicate the recorded call for CC(C(C)N1CC(=O)NC(=O)C1)N1CC(=O)NC(=O)C1 (centres undefined) . active

Recorded test call requested for "COc1cc(C=CC(=O)CC(=O)C=Cc2ccc(O)c(OC)c2)ccc1O" active

Which outcome did this test record for the compound "NS(=O)(=O)OC[C@@H]1C[C@@H](n2ccc3c(N[C@H]4CCc5ccccc54)ncnc32)C[C@H]1O" ? inactive

What is the recorded call for this compound in the test? "CCS(=O)(=O)Nc1ccc2[nH]c(O)c(C(=Nc3ccc(CN4CCCCC4)cc3)c3ccccc3)c2c1" active

Check the results log: what was the call for "Cc1cnc(Nc2ccc(N3CCN(C)CC3)cc2)nc1Nc1cccc(S(=O)(=O)NC(C)(C)C)c1" ? active

----------
Protocol Text: Quantitative High-Throughput drug screen in 47 multiple myeloma cell lines against the NCATS MIPE library collection: OCIMY5_PLB cell viability assay (AID 1918988); further: nearly all actives have a fitted effect of over 65% in size; further: potency means the concentration at half of the fitted maximal effect
Run Parameters: OCI-MY5 myeloma viability, ATP luminescence, 48 h; series mostly up to 45.8 µM
Results filed as inconclusive are left out. Active and inactive are the calls of the source. The call rests on the fitted dose curve; in most records, active means well fitted cell-killing curve with a large enough effect; inconclusive means small, poorly fitted or top-dose-only effect, or effect the other way; inactive means no such curve, though single readings can be large or run the other way.
Reported Endpoint: Potency

# example entries with known answers
>>> reported("COc1ccc(C(C)=O)c(O)c1")
"inactive"
>>> reported("Cc1nc(NC(=O)N2CCC[C@@H]2C(N)=O)sc1-c1ccnc(C(C)(C)C(F)(F)F)c1")
"935 nM (active)"
>>> reported("CC[C@H]1OC(=O)[C@H](C)[C@@H](O[C@H]2C[C@@](C)(OC)[C@@H](O)[C@H](C)O2)[C@H](C)[C@@H](O[C@@H]2O[C@@H](C)C[C@H](N(C)C)[C@@H]2O)[C@](C)(O)C[C@@H](C)C(=O)[C@H](C)[C@@H](O)[C@]1(C)O")
"inactive"
>>> reported("O=C1NCCc2[nH]c(-c3ccncc3)cc21")
"8330 nM (active)"
>>> reported("NC(=O)c1cccc(-c2cccc(OC(=O)NC3CCCCC3)c2)c1")
"29600 nM (active)"
>>> reported("COc1ccc2c(c1OC)C(=O)OC2[C@H]1c2c(cc3c(c2OC)OCO3)CCN1C (some centres not stated)")
"23.5 nM (active)"

Just so you know, measured Potency for "COc1cc(OC)c(C=CS(=O)(=O)Cc2ccc(OC)c(NCC(=O)O)c2)c(OC)c1" came out at 590 nM (active)

Documented Potency of "CC1(C)[C@H](O[C@H]2O[C@H](C(=O)O)[C@@H](O)[C@H](O)[C@H]2O[C@@H]2O[C@H](C(=O)O)[C@@H](O)[C@H](O)[C@H]2O)CC[C@@]2(C)[C@H]1CC[C@]1(C)[C@H]2C(=O)C=C2[C@H]3C[C@@](C)(C(=O)O)CC[C@]3(C)CC[C@]21C" : inactive

The recorded Potency for "CCCCC(=O)O[C@]1(C(=O)CO)[C@@H](C)C[C@H]2[C@@H]3CCC4=CC(=O)C=C[C@]4(C)[C@@]3(F)[C@@H](O)C[C@@]21C" is 9.3 nM (active)

Documented Potency of "COC1=C2C[C@@H](C)C[C@H](OC)[C@@H](O)[C@@H](C)C=C(C)[C@H](OC(N)=O)[C@@H](OC)C=CC=C(C)C(=O)NC(=CC1=O)C2=O" : 37.2 nM (active)

Sample "c1cncc(CN2CCC(n3ncc4c(N5CCOCC5)nc(-c5ccc6[nH]ccc6c5)nc43)CC2)c1" ; Potency observed: 13200 nM (active)

Potency reported for this molecule "CC(C)(O)CC[C@@H](O)[C@](C)(O)[C@H]1CC[C@@]2(O)C3=CC(=O)[C@@H]4C[C@@H](O)[C@@H](O)C[C@]4(C)[C@@H]3CC[C@]12C" : inactive
